src = a melting point compilation (Tetko et al.; mined from patent text by program, amines drawn as free bases though some values may be those of a salt)

I'd appreciate it if you could supply melting point values for the items below.

Report melting point for CCCCc1nc2c(N)nc3ccccc3c2n1CCOCCON=C(C)C please. 116 to 118 °C

Report melting point for CCCCOc1cccc(OCCBr)c1 please. 32 to 34 °C

Report melting point for Cc1cc(C)nc(NC(=O)c2ccncc2)c1 please. 142 °C

Report melting point for NNc1nc(Cl)nc2c(Cl)cc(Cl)cc12 please. > 280 °C

Report melting point for CC(=O)CC(=O)NC1CC1 please. 65 to 66 °C

Report melting point for COc1cc2c(c(OC)c1OC)CCC(C(=O)Cc1cccc(F)c1)C2C#N (centres undefined) please. 120 to 122 °C

Report melting point for CC(=NOCc1ccccc1)C(C)Oc1ccccc1NC(=O)c1cccnc1Cl (centres undefined) please. 53 to 55 °C

Report melting point for C#CCN1CC[C@H](O[Si](C)(C)C(C)(C)C)C1=O please. 35 to 36 °C

Report melting point for COc1ccnc(C(=O)N[C@H]2COC(=O)[C@H](CC(=O)OC(C)(C)C)[C@@H](OC(=O)C(C)C)[C@H](C)OC2=O)c1O please. 192 to 194 °C

Report melting point for C#C[C@@H](C)N(O)C(N)=O please. 120 to 123 °C

Report melting point for CCN(CCCCCCCCN(CC)S(=O)(=O)c1ccc(C)cc1)S(=O)(=O)c1ccc(C)cc1 please. 112 to 113 °C

Report melting point for CC(C)n1cc(C(=O)O)c2ccc(F)cc21 please. 177 to 180 °C

Report melting point for C[C@H]1COc2c(N3C[C@@H](N)[C@@H](C4CC4)C3)c(F)cc3c(=O)c(C(=O)O)cn1c23 please. 218 to 220 °C

Report melting point for COC(=O)[C@H](Cc1c[nH]c2ccccc12)NC(=O)CCC(=O)[C@H](Cc1ccccc1)NC(=O)c1ccccc1 please. 88 to 90 °C

Report melting point for O=C(c1ccccc1)c1ccc(OC(=O)C2CC2)cc1 please. 81 to 81.5 °C

Report melting point for N#Cc1c(Cl)nc2ccccc2c1Cl please. 157 °C

Report melting point for CC(c1ccc(-c2ccccc2F)cc1)S(=O)(=O)CC(=O)O (centres undefined) please. 144 to 146 °C

Report melting point for COCc1cc(-c2nnc3c4ccccc4c(OCc4ncn(C)n4)nn23)no1 please. 236 °C

Report melting point for CC(=O)c1c(C)c(NC(=O)CC(C)(C)C)c(C)c2c1OCC2c1ccc(C(C)C)cc1 (centres undefined) please. 176 to 177 °C
